Taken from patent US20240343803A1.

% relative activity (AUC) parental antibody/test antibody values, listed per item
# measurement target: T1, human PVRIG-his (AcroBiosystems, Cat NO. PVG-H52H4) (human, UniProt Q6DKI7 41-171, limits assumed)
# T1 construct: also called human PVRIG protein
# T1 sequence (looked up): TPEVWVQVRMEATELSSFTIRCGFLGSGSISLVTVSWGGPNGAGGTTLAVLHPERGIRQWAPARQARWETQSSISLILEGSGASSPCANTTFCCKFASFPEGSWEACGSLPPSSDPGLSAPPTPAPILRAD
# protocol text: competition ELISA, PVRIG-His coated, competitor human PVRL2-mFc
Write the answer as a number in %, unit excluded.

binder="PVRIG-A118-H6 (Fc fusion, humanized variant of PVRIG-A118; also called A118.VH6; not shown: constant part not restated for the humanized forms; parents are VHH-hinge-CH2-CH3 of human IgG1; detected by anti-human) EVQLVESGGGLVQPGGSLRLSCAASETYFDLYVMGWYRQAPGKDRELVATITYTGSIKIVDSVKGRFTISRGDAKNSLYLQMNSLRAEDTAVYYCNADPSGLGRKVYWGQGTMVTVSS" recorded_value=108

// switching to the query binder
Fill in the blank: the reported % relative activity (AUC) parental antibody/test antibody of PVRIG-A118-H2 (Fc fusion, humanized variant of PVRIG-A118; also called A118.VH2; not shown: constant part not restated for the humanized forms; parents are VHH-hinge-CH2-CH3 of human IgG1; detected by anti-human) EVQLVESGGGLVQPGGSLRLSCAASETYFDLYVMGWYRQAPGKDRELVATITYTGSIKYVDSVKGRFTISRDNAKNSLYLQMNSLRAEDTAVYYCNADPSGLGRKVYWGQGTMVTVSS is ____. 117
